Values compiled from PubChem BioAssay AID1159580.

This listing pairs compounds with measured normalized growth.
- protocol-details: chemical genetic growth profiling, strain panel (AID 1159580);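 further: tested at 20 µM; growth read once vehicle control cultures reached saturation at 30 °C; 1 = growth at the plate median or of vehicle wells; lower values mean less growth of the strain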
- settings: S. cerevisiae deletion strains, growth OD, locus YNL071W, strain lat1, active compounds read low
The campaign covered roughly 5,500 compounds. About 2,000 (36%) were called active. Another 18% or so got no clear call; they are omitted. Some of the results follow.
assay-metric: normalized growth

>>> data_value("CC(CCc1ccccc1)NC(C)C(O)c1ccc(O)cc1 (configuration not stated)")
0.999
>>> data_value("CC(N)CCCC(C)(C)O (configuration not stated)")
0.987
>>> data_value("CCOC(=O)CCC(=O)O[C@H]1[C@H](O[C@@H]2[C@@H](C)[C@H](O[C@H]3C[C@@](C)(OC)[C@@H](O)[C@H](C)O3)[C@@H](C)C(=O)O[C@H](CC)[C@@](C)(O)[C@H](O)[C@@H](C)C(=O)[C@H](C)C[C@@]2(C)O)O[C@H](C)C[C@@H]1N(C)C")
0.996
>>> data_value("C=Cc1c2[nH]c(c1C)C=c1[nH]c(c(C)c1C=C)=CC1N=C(C=c3[nH]c(c(C)c3CCC(=O)O)=C2)C(CCC(=O)O)=C1C (configuration not stated)")
0.881
>>> data_value("NC(=O)C(c1ccccc1)(c1ccccc1)C1CCN(CCc2ccc3c(c2)CCO3)C1 (configuration not stated)")
1.01
>>> data_value("CC1=C(C(C)O)C2=NC1C=c1[nH]c(c(C)c1C(C)O)=Cc1[nH]c(c(CCC(=O)O)c1C)C=c1[nH]c(c(C)c1CCC(=O)O)=C2 (configuration not stated)")
0.963
>>> data_value("CCC(=O)O[C@H]1[C@H](O[C@@H]2[C@@H](C)[C@H](O[C@H]3C[C@@](C)(OC)[C@@H](O)[C@H](C)O3)[C@@H](C)C(=O)O[C@H](CC)[C@@](C)(O)[C@H](O)[C@@H](C)C(=O)[C@H](C)C[C@@]2(C)O)O[C@H](C)C[C@@H]1N(C)C")
0.309
>>> data_value("CN1CCC(=C2c3ccccc3CC(=O)c3sccc32)CC1")
0.987
>>> data_value("CCOC(=O)c1c(C)c(Cl)c(O)c(Cl)c1O")
0.127
>>> data_value("CCCCCCCCNC(C)C(O)c1ccc(SC(C)C)cc1 (configuration not stated)")
0.0586
>>> data_value("ClC1=C(Cl)C2(Cl)C3C(Cl)C=CC3C1(Cl)C2(Cl)Cl (configuration not stated)")
1.02
>>> data_value("Cc1cc(O)c(C=O)c(O)c1C(=O)O")
1.01
>>> data_value("O=C(O)C1(O)C[C@@H](O)C(O)[C@H](O)C1 (some centres not stated)")
0.989
>>> data_value("CN(C)CC/C=C1\\c2ccccc2Sc2ccc(Cl)cc21")
0.934
>>> data_value("CCOC(=O)c1c(C)cc(O)c(C=O)c1O")
0.248
>>> data_value("C=C1C2CC[C@H]3[C@]4(C)C[C@H](OC5OC(CO)C(OS(=O)(=O)O)C(OS(=O)(=O)O)C5OC(=O)CC(C)C)C[C@@H](C(=O)O)[C@H]4CC[C@]3(C2)[C@H]1O (some centres not stated)")
1.01
>>> data_value("COc1ccc2c3c1O[C@H]1C[C@@H](O)C=C[C@@]31CCN(C)C2")
1.01
